B1: ZNF649 (parent)
chain: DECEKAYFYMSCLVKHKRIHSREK

# Variants of: B1
# experimentNotes: protein stability index of a GFP-peptide fusion (GPS, HEK-293T) (PSI 1-6); higher = more stable;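 further: lentivirally expressed fusions sorted by FACS into six bins by GFP to DsRed ratio, PSI derived from sequencing read proportions per bin multiplied by bin number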
# measurementContext: c terminus: a fixed tail appended
metricName: protein stability index
Lab note: record the figure alone, no unit after it.

Asked: Assign protein stability index to the following record: C12W
Given back: 2.33

Asked: Assign protein stability index to the following record: Y9F
Given back: 2.66

Asked: Assign protein stability index to the following record: K17A
Given back: 2.94

Asked: Assign protein stability index to the following record: K15W
Given back: 1.53

Asked: Assign protein stability index to the following record: V14P
Given back: 3.27

Asked: Assign protein stability index to the following record: R22F
Given back: 2.09

Asked: Assign protein stability index to the following record: C3F
Given back: 1.91

Asked: Assign protein stability index to the following record: F8D
Given back: 3.88

Asked: Assign protein stability index to the following record: V14N
Given back: 3.53

Asked: Assign protein stability index to the following record: R18Y
Given back: 2.52

Asked: Assign protein stability index to the following record: A6D
Given back: 3.52
